target: J038; assay: BLI
Measured Quantity: Kd
Please don't drop the unit; write it after the number.

QUERY: Any idea what its Kd is? The binder is KSISIGPGQAI [SHIV_(1157ipd3N4) V3 peptide (305KSISIGPGQAI317)]
RESULT: 1650 nM

All figures here come from paper PMC11240982.
